# targetDesc: PD-1/PD-L1 (Homo sapiens (Human))
# Sequence (Q9NZQ7 19-238): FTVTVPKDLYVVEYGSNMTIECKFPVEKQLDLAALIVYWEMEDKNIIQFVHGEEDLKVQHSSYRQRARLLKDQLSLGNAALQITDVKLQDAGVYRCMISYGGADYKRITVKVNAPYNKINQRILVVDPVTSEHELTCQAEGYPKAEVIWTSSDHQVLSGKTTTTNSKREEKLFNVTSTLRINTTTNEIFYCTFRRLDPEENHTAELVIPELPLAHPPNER
# assayName: Homogeneous time-resolved fluorescence (HTRF) binding assay
# experimentalConditions: CisBio kit, read-out: IC50 of compounds binding to PD-1/PD-L1
testReadout: pIC50
Remember the convention: pIC50 equals -log10 of concentration in molar.

Reference set, count: 2
structureSmilesString: COc1cc(/C=C/c2cccc(-c3ccccc3)c2C#N)c(Cl)cc1CN1CCCC[C@H]1C(=O)O
targetDesc: PD-1/PD-L1 (Homo sapiens (Human))
pIC50: 8.36
//
structureSmilesString: Cc1c(/C=C/c2ccc(CN3CCCC[C@H]3C(=O)O)cc2C(F)(F)F)cccc1-c1ccccc1
targetDesc: PD-1/PD-L1 (Homo sapiens (Human))
pIC50: 7.97

Read the next record carefully.
Bench note, PD-1/PD-L1 (Homo sapiens (Human)): `Cc1c(/C=C/c2cc(OCCCF)c(CN3CCCC[C@H]3C(=O)O)cc2C(F)(F)F)cccc1-c1ccccc1` , pIC50 reads 8.45

Source of measurements: patent US20230331675A1
